B1: TRAF3IP2 (parent)
chain: YGHDYPRAAYQQVIQPALPGQPLP

# Variants of: B1
# RUN_DESCRIPTION: protein stability index of a GFP-peptide fusion (GPS, HEK-293T) (PSI 1-6); higher = more stable;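 note: lentivirally expressed fusions sorted by FACS into six bins by GFP to DsRed ratio, PSI derived from sequencing read proportions per bin multiplied by bin number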
# ASSAY_CONTEXT: c terminus: a fixed tail appended
ENDPOINT: protein stability index
// return a plain number; no unit text

Worked examples, 5 variants total:
Need protein stability index, item YGHDYPRDAYQQVIQPALPGQPLP [A8D] 2.43

Given the entry YGHDYPRAAYQQVIQPALAGQPLP [P19A] , report its measured protein stability index. 1.99

Recorded protein stability index for YGHDTPRAAYQQVIQPALPGQPLP [Y5T] , please? 3.79

May I ask what protein stability index has been recorded for YGHDYPRAAYQQVIQPVLPGQPLP [A17V] ? 2.41

Which value of protein stability index has been reported for YGHDYPRAAYQRVIQPALPGQPLP [Q12R] in the records? 2.17

***
Data request, read-out protein stability index, for YGHDYPRAAYQQVIQPALPDQPLP [G20D] 2.78

Report protein stability index for YGHDYPMAAYQQVIQPALPGQPLP [R7M] please. 2.27

Record request: protein stability index value, item YGHDYPRAAYEQVIQPALPGQPLP [Q11E] 2.09

Would you mind telling me what protein stability index value was observed for YGHDYPRAAYQQVIQPALPGQPGP [L23G] ? 1.77

Dear colleague, I am looking for the recorded protein stability index of the following variant: YGHDYPRAAYQPVIQPALPGQPLP [Q12P] 3.46

So what's the measured protein stability index for this one? YGHDYPRAAYQQTIQPALPGQPLP [V13T] 1.83

Need protein stability index of YGHDYPNAAYQQVIQPALPGQPLP [R7N] , thanks. 2.82

I would be grateful if you could share the reported protein stability index for YGHDYPRAAYQQVIQPAGPGQPLP [L18G] . 2.01

I would be grateful if you could share the reported protein stability index for YGHDYPRAAYQQVIQPALPGQPLW [P24W] . 2.3

What does the data say about its protein stability index? Entry: YGHDYPRAAYQQGIQPALPGQPLP [V13G] 2.45

Field request: protein stability index | item: YGHDYPRAAYQQVIQNALPGQPLP [P16N] 1.95

# input variant: YGHDYPRNAYQQVIQPALPGQPLP [A8N] ; wanted: its protein stability index 2.3
